Biological target: human NOD2 (Homo sapiens, UniProt Q9HC29)
Construct: host or cells: HEK-Blue NOD2 cells (derived from HEK293)
Sequence (Q9HC29 whole entry): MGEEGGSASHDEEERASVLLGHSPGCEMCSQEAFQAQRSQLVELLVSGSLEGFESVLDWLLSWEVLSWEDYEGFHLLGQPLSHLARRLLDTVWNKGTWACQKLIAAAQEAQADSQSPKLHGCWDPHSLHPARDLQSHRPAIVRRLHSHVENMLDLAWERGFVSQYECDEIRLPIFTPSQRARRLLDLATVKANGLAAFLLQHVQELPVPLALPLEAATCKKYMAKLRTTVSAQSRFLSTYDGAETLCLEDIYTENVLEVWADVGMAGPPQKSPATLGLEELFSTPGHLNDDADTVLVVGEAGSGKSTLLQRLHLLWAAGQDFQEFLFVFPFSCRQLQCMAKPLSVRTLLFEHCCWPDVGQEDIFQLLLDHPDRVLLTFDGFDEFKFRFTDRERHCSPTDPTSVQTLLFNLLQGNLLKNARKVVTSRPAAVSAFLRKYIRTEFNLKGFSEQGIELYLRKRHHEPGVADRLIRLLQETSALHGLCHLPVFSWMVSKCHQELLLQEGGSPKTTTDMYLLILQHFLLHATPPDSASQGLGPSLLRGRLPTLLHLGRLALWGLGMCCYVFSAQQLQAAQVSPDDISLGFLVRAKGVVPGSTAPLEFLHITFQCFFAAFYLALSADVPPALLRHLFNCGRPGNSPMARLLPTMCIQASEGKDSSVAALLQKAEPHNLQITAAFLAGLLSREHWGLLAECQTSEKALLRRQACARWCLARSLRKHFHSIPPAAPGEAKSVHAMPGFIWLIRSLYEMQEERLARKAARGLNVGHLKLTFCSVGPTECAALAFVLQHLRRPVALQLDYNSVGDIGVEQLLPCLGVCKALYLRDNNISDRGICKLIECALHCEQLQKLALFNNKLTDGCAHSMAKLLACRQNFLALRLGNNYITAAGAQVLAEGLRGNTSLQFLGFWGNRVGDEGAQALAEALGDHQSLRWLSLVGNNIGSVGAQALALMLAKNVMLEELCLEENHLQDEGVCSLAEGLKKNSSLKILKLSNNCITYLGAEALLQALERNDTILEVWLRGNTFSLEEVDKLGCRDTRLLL
Experiment: HEK-Blue NOD2 NF-κB SEAP reporter assay (NOD2 agonistic activity)
Assay type: cell-based
Conditions: HEK-Blue NOD2 cells, 18 h; means ± SEMs of at least three independent experiments, 8 or 16 concentrations (0.1 nM to 20 μM)
Experimental: The synthesized desmuramylpeptides were evaluated for their dose-dependent NOD2 activity using the commercially available HEK-Blue NOD2 reporter cell line. […] Activation of NOD2 and subsequently of NF-κB leads to the expression and secretion of SEAP, the level of which can be quantified colorimetrically. […] the corresponding vehicle (0.1% DMSO). […] EC50 values were calculated using Prism software (version 9; GraphPad Software, CA, USA). […]
ENDPOINT: EC50 (nM)

Below: 3 compounds and their reported EC50.
CCOC(=O)CC[C@@H](NC(=O)[C@H](CCc1ccccc1)NC(=O)CNC(=O)/C=C/c1ccc(O)c(OC)c1)C(=O)OCC :: 420
CCOC(=O)CC[C@@H](NC(=O)[C@@H](NC(=O)CNC(=O)/C=C/c1ccc2c(c1)OCO2)C(C)C)C(=O)OCC :: 2670
COc1cc(/C=C/C(=O)NCC(=O)N[C@H](C(=O)N[C@H](CCC(=O)OC2CCCC2)C(=O)OC2CCCC2)C(C)C)ccc1OC(=O)CC12CC3CC(CC(C3)C1)C2 :: 44

I. CCOC(=O)CC[C@@H](NC(=O)[C@@H](NC(=O)CNC(=O)c1cc2ccc(Br)cc2o1)C(C)C)C(=O)OCC
II. CC(=O)NC1C(O)OC(CO)C(O)C1OC(C)C(=O)NC(C)C(=O)NC(CCC(=O)O)C(N)=O (stereo not drawn) [MDP, muramyl dipeptide, reference compound]
III. CCOC(=O)CC[C@@H](NC(=O)[C@@H](NC(=O)CNC(=O)c1cc2ccccc2o1)C(C)C)C(=O)OCC
IV. CCOC(=O)CC[C@@H](NC(=O)[C@@H](NC(=O)CNC(=O)c1cc2cc([N+](=O)[O-])ccc2o1)C(C)C)C(=O)OCC
V. CCOC(=O)CC[C@@H](NC(=O)[C@@H](NC(=O)CNC(=O)c1cc2cc(Br)ccc2o1)C(C)C)C(=O)OCC
Request: Form: Sort by [EC50] Order [ ascending ] I would appreciate it if you listed the labels in the requested order.
Result: II, V, IV, I, III
(II: 203 nM, V: 316 nM, IV: 760 nM, I: 1930 nM, III: 4340 nM)

* * *

molecular target: human NOD2 (Homo sapiens, UniProt Q9HC29); construct: host or cells: HEK-Blue NOD2 cells (derived from HEK293); assay: HEK-Blue NOD2 NF-κB SEAP reporter assay (NOD2 agonistic activity); type: cell-based; settings: HEK-Blue NOD2 cells
pEC50: −log10 of the molar value.
ENDPOINT: pEC50

P. CCOC(=O)CC[C@@H](NC(=O)[C@@H](NC(=O)CNC(=O)/C=C/c1ccc2c(c1)OCO2)C(C)C)C(=O)OCC
Q. CCOC(=O)CC[C@@H](NC(=O)[C@@H](NC(=O)CNC(=O)c1cc2ccccc2o1)C(C)C)C(=O)OCC
Request: Between the entries labelled P and Q , which has a larger pEC50 value on record? Answer by stating the label of the chosen item.
Result: P
(P: 5.57, Q: 5.36)
